Listing of recorded cell viability by entry.
Tested on: U2OS
Assay: cell viability relative to DMSO; higher = less toxic
Settings: 72 h; 1 nM
Use % as the unit, but write only the number.

COC(=O)CN1CN(c2ccccc2)C2(CCN(Cc3cccc4ccccc34)CC2)C1=O = 100
CC[C@@H](C(=O)[C@@H](C)[C@@H](O)[C@H](C)[C@@H]1O[C@@H]([C@@H](CC)C(=O)O)CC[C@@H]1C)[C@H]1O[C@]2(C=C[C@@H](O)[C@]3(CC[C@@](C)([C@H]4CC[C@](O)(CC)[C@H](C)O4)O3)O2)[C@H](C)C[C@@H]1C = 100
COC(=O)C1=C(C)NC(C)=C(C(=O)O[C@H]2CCN(Cc3ccccc3)C2)[C@H]1c1cccc([N+](=O)[O-])c1 = 98.6

Please look at the following molecule next.
Exam item: // fetch cell viability given entry NS(=O)(=O)c1nn2cc(-c3ccccc3)nc2s1
Marked response: 101
